Exercise: for every item that follows, state its recorded pEC50.
ASSAY_TARGET: Signal transducer and activator of transcription 3 (Homo sapiens)
PROTOCOL_NOTES: Inhibition of […] activation in human AD293 cells incubated […] for 16 hrs followed by compound addition measured after 4 hrs by luciferase reporter gene assay
Format: cell-based
pEC50: −log10 of the molar value.

[[record]]
structure_smiles = "CC(C)(C)[Si](C)(C)OC[C@]1(C)C(=O)CC[C@@]2(C)[C@H](C/C=C3/C(=O)OC[C@H]3O[Si](C)(C)C(C)(C)C)[C@]3(CC[C@@H]21)CO3"
assay_value = "< 5.00"

[[record]]
structure_smiles = "CC(C)(C)[Si](C)(C)O[C@@H]1COC(=O)/C1=C/C[C@@H]1[C@]2(CC[C@@H]3[C@](C)(CO)[C@H](O)CC[C@]31C)CO2"
assay_value = "< 5.00"

[[record]]
structure_smiles = "C=C1CC[C@@H]2[C@](C)(CO[Si](C)(C)C(C)(C)C)[C@H](O)CC[C@@]2(C)[C@@H]1C/C=C1/C(=O)OC[C@H]1OC(C)=O"
assay_value = 5.16


Below are 4 molecules. Give each one its pEC50.
1. C=C1CC[C@H]2[C@@](C)(CCC(=O)[C@@]2(C)CO)[C@@H]1C/C=C1/C(=O)OC[C@@H]1OC(C)=O
2. C=C1CC[C@@H]2[C@](C)(CO[Si](C)(C)C(C)(C)C)[C@H](O)CC[C@@]2(C)[C@@H]1C/C=C1/C(=O)OC[C@@H]1OC(C)=O
3. CC(C)(C)[Si](C)(C)O[C@@H]1COC(=O)/C1=C/C[C@@H]1[C@]2(CC[C@H]3[C@@]1(C)CCC(=O)[C@@]3(C)CO)CO2
4. C=C1CC[C@H]2[C@@](C)(CCC(=O)[C@@]2(C)COC(C)=O)[C@@H]1C/C=C1/C(=O)OC[C@H]1O[Si](C)(C)C(C)(C)C

["< 5.00", 5.14, "< 5.00", "< 5.00"]

###

Exercise: for every item that follows, state its recorded pEC50.
ASSAY_TARGET: Signal transducer and activator of transcription 3 (Homo sapiens, UniProt P40763)
Sequence (P40763 whole entry): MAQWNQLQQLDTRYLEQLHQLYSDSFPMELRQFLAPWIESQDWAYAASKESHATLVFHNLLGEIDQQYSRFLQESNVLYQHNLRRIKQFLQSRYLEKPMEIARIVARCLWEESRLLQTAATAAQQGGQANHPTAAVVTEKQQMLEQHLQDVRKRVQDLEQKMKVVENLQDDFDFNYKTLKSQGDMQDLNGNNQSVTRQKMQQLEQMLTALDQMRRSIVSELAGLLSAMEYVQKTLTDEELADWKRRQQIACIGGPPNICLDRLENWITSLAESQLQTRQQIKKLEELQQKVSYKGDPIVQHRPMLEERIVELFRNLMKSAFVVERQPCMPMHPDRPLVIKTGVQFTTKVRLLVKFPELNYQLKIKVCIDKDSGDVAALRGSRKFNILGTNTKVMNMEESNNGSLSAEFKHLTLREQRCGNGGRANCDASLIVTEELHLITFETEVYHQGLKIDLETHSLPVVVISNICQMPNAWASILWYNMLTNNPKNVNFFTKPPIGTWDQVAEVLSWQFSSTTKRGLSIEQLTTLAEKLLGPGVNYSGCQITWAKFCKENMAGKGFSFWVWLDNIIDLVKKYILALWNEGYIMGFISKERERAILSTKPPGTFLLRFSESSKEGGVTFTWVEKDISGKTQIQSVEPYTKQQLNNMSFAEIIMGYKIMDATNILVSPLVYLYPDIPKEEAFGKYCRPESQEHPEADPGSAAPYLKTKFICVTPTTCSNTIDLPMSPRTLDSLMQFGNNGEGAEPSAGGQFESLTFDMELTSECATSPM
PROTOCOL_NOTES: Inhibition of […] activation in human HeLa cells incubated […] for 16 hrs followed by compound addition measured after 4 hrs by luciferase reporter gene assay
Type: cell-based
Give bare numbers, as −log10 of the molar value.

Observe how each entry below is paired with its result.
[[record]]
structure_smiles = "C=C1CC[C@@H]2[C@](C)(CO[Si](C)(C)C(C)(C)C)[C@H](O)CC[C@@]2(C)[C@@H]1C/C=C1/C(=O)OC[C@@H]1OC(C)=O"
measure_name = "pEC50"
assay_value = 5.00

[[record]]
structure_smiles = "CC(=O)OC[C@]1(C)C(=O)CC[C@@]2(C)[C@H](C/C=C3/C(=O)OC[C@@H]3O[Si](C)(C)C(C)(C)C)[C@@]3(CC[C@@H]21)CO3"
measure_name = "pEC50"
assay_value = 5.15

[[record]]
structure_smiles = "C=C1CC[C@@H]2[C@](C)(CO[Si](C)(C)C(C)(C)C)[C@H](O)CC[C@@]2(C)[C@@H]1C/C=C1/C(=O)OC[C@H]1OC(C)=O"
measure_name = "pEC50"
assay_value = 5.09


Let us move to another entry and its pEC50.
Looking for the measured pEC50 of "C=C1CC[C@H]2[C@@](C)(CCC(=O)[C@@]2(C)CO[Si](C)(C)C(C)(C)C)[C@@H]1C/C=C1/C(=O)OC[C@H]1O" , can you help?
5.06

###

ASSAY_TARGET: Signal transducer and activator of transcription 3 (Homo sapiens, UniProt P40763)
PROTOCOL_NOTES: Inhibition of IFNgamma-stimulated STAT3 activation in human AD293 cells incubated with IFNgamma for 16 hrs followed by compound addition measured after 24 hrs by luciferase reporter gene assay
Format: cell-based
MEASURE_NAME: EC50

Observe how each entry below is paired with its result.
[[record]]
structure_smiles = "C=C1CC[C@H]2[C@@](C)(CCC(=O)[C@@]2(C)COC(C)=O)[C@@H]1C/C=C1/C(=O)OC[C@H]1O[Si](C)(C)C(C)(C)C"
assay_target = "Signal transducer and activator of transcription 3 (Homo sapiens, UniProt P40763)"
assay_value = "> 10 µM"

[[record]]
structure_smiles = "C=C1CC[C@H]2[C@@](C)(CCC(=O)[C@@]2(C)CO[Si](C)(C)C(C)(C)C)[C@@H]1C/C=C1/C(=O)OC[C@H]1OC(C)=O"
assay_target = "Signal transducer and activator of transcription 3 (Homo sapiens, UniProt P40763)"
assay_value = "1.97 µM"


Let us move to another entry and its EC50.
Looking for the measured EC50 of "C=C1CC[C@H]2[C@@](C)(CCC(=O)[C@@]2(C)CO)[C@@H]1C/C=C1/C(=O)OC[C@@H]1O[Si](C)(C)C(C)(C)C" , can you help?
> 10 µM

###

ASSAY_TARGET: Signal transducer and activator of transcription 3 (Homo sapiens)
PROTOCOL_NOTES: Inhibition of IFNgamma-stimulated STAT3 activation in human AD293 cells incubated with IFNgamma for 16 hrs followed by compound addition measured after 24 hrs by luciferase reporter gene assay
Assay type: cell-based
MEASURE_NAME: EC50 (µM)
Numbers only, in µM.

[[record]]
structure_smiles = "CC(C)(C)[Si](C)(C)O[C@@H]1COC(=O)/C1=C/C[C@@H]1[C@]2(CC[C@H]3[C@@]1(C)CCC(=O)[C@@]3(C)CO)CO2"
assay_value = 5.99


Let us move to another entry and its EC50.
Looking for the measured EC50 of "C=C1CC[C@H]2[C@@](C)(CCC(=O)[C@@]2(C)CO[Si](C)(C)C(C)(C)C)[C@@H]1C/C=C1/C(=O)OC[C@@H]1OC(C)=O" , can you help?
4.75

###

ASSAY_TARGET: Signal transducer and activator of transcription 3 (Homo sapiens, UniProt P40763)
PROTOCOL_NOTES: Inhibition of IFNgamma-stimulated STAT3 activation in human AD293 cells incubated with IFNgamma for 16 hrs followed by compound addition measured after 24 hrs by luciferase reporter gene assay
Type: cell-based
pEC50: −log10 of the molar value.
MEASURE_NAME: pEC50

[[record]]
structure_smiles = "C=C1CC[C@@H]2[C@](C)(CO)[C@H](O)CC[C@@]2(C)[C@@H]1C/C=C1/C(=O)OC[C@@H]1O[Si](C)(C)C(C)(C)C"
assay_target = "Signal transducer and activator of transcription 3 (Homo sapiens, UniProt P40763)"
assay_value = "< 5.00"

[[record]]
structure_smiles = "C=C1CC[C@H]2[C@@](C)(CCC(=O)[C@@]2(C)COC(C)=O)[C@@H]1C/C=C1/C(=O)OC[C@@H]1O[Si](C)(C)C(C)(C)C"
assay_target = "Signal transducer and activator of transcription 3 (Homo sapiens, UniProt P40763)"
assay_value = "< 5.00"


Let us move to another entry and its pEC50.
Write down the reported pEC50 of "C=C1CC[C@H]2[C@@](C)(CCC(=O)[C@@]2(C)CO)[C@@H]1C/C=C1/C(=O)OC[C@H]1O[Si](C)(C)C(C)(C)C" , test system: Signal transducer and activator of transcription 3 (Homo sapiens, UniProt P40763).
< 5.00

###

Exercise: for every item that follows, state its recorded EC50.
ASSAY_TARGET: Signal transducer and activator of transcription 3 (Homo sapiens)
PROTOCOL_NOTES: Inhibition of IL-6 stimulated STAT3 activation in human AD293 cells incubated with IL-6 for 16 hrs followed by compound addition measured after 6 hrs by luciferase reporter gene assay
Assay type: cell-based

[[record]]
compound = "C=C1CC[C@H]2[C@@](C)(CCC(=O)[C@@]2(C)COC(C)=O)[C@@H]1C/C=C1/C(=O)OC[C@@H]1O[Si](C)(C)C(C)(C)C"
assay_value = "> 10 µM"

[[record]]
compound = "CC(=O)OC[C@]1(C)C(=O)CC[C@@]2(C)[C@H](C/C=C3/C(=O)OC[C@H]3O[Si](C)(C)C(C)(C)C)[C@]3(CC[C@@H]21)CO3"
assay_value = "> 10 µM"

[[record]]
compound = "CC(C)(C)[Si](C)(C)OC[C@]1(C)C(=O)CC[C@@]2(C)[C@H](C/C=C3/C(=O)OC[C@H]3O)[C@]3(CC[C@@H]21)CO3"
assay_value = "> 10 µM"

[[record]]
compound = "CC(C)(C)[Si](C)(C)O[C@@H]1CC[C@]2(C)[C@H](CC[C@]3(CO3)[C@H]2C/C=C2/C(=O)OC[C@H]2O)[C@]1(C)CO"
assay_value = "> 10 µM"

[[record]]
compound = "C[C@@]12CCC(=O)[C@@](C)(CO)[C@H]1CC[C@]1(CO1)[C@H]2C/C=C1/C(=O)OC[C@H]1O"
assay_value = "> 10 µM"

[[record]]
compound = "C=C1CC[C@H]2[C@@](C)(CCC(=O)[C@@]2(C)CO[Si](C)(C)C(C)(C)C)[C@@H]1C/C=C1/C(=O)OC[C@H]1O"
assay_value = "6.45 µM"


Below are 7 compounds. Give each one its EC50.
1. CC(C)(C)[Si](C)(C)O[C@@H]1CC[C@]2(C)[C@H](CC[C@@]3(CO3)[C@H]2C/C=C2/C(=O)OC[C@H]2O)[C@]1(C)CO
2. C=C1CC[C@@H]2[C@](C)(CO)[C@H](O)CC[C@@]2(C)[C@@H]1C/C=C1/C(=O)OC[C@@H]1O[Si](C)(C)C(C)(C)C
3. C=C1CC[C@H]2[C@@](C)(CCC(=O)[C@@]2(C)CO)[C@@H]1C/C=C1/C(=O)OC[C@@H]1O[Si](C)(C)C(C)(C)C
4. C=C1CC[C@H]2[C@@](C)(CCC(=O)[C@@]2(C)CO)[C@@H]1C/C=C1/C(=O)OC[C@@H]1OC(C)=O
5. C=C1CC[C@H]2[C@@](C)(CCC(=O)[C@@]2(C)CO)[C@@H]1C/C=C1/C(=O)OC[C@H]1O[Si](C)(C)C(C)(C)C
6. C=C1CC[C@@H]2[C@](C)(COC(C)=O)[C@H](OC(C)=O)CC[C@@]2(C)[C@@H]1C/C=C1/C(=O)OC[C@H]1O[Si](C)(C)C(C)(C)C
7. CC(C)(C)[Si](C)(C)OC[C@]1(C)C(=O)CC[C@@]2(C)[C@H](C/C=C3/C(=O)OC[C@H]3O[Si](C)(C)C(C)(C)C)[C@]3(CC[C@@H]21)CO3

1: 4.16 µM; 2: > 10 µM; 3: > 10 µM; 4: > 10 µM; 5: > 10 µM; 6: > 10 µM; 7: > 10 µM

Below are 2 compounds. Give each one its EC50.
1. C=C1CC[C@H]2[C@@](C)(CCC(=O)[C@@]2(C)CO)[C@@H]1C/C=C1/C(=O)OC[C@H]1OC(C)=O
2. C=C1CC[C@@H]2[C@](C)(CO[Si](C)(C)C(C)(C)C)[C@H](OC(C)=O)CC[C@@]2(C)[C@@H]1C/C=C1/C(=O)OC[C@H]1OC(C)=O

1: 6.1 µM; 2: > 10 µM
